# Tested on: pylorous ligated rats
# assay_explanation: Antisecretory activity in the pylorous ligated rat model
# Assay type: in vivo, male Sprague-Dawley rats
# condition_parameters: Rattus norvegicus, 4 h; oral dose 50 mg/kg; negative sign means stimulated; read-out: Percent inhibition of pepsin output
Structures can show the parent of a compound that is named as a salt.
readout_name: inhibition in vivo at 50 mg/kg (%)
Write the number in % without appending the unit.

Please review the following examples before continuing.
# compound, readout_name, observed_result
data = [
    ("CCCCCC(C)C(C)c1cc(O)c(C2=CCNCC2)c(O)c1 (centres unmarked) [Example XV, hydrochloride]", "inhibition in vivo at 50 mg/kg", 54.3),
    ("CCCCCc1cc(O)c(C2=CCN(CCc3ccccc3)CC2)c(O)c1 [Example XIX, hydrochloride]", "inhibition in vivo at 50 mg/kg", 31.7),
    ("CC(C)c1cc(O)c(C2=CCNCC2)c(O)c1 [XII, hydrochloride]", "inhibition in vivo at 50 mg/kg", 12.8),
    ("CCCCCC(C)C(C)c1cc(O)c(C2=CCN(Cc3ccccc3)CC2)c(OC)c1 (centres unmarked) [Example XXVII, hydrochloride]", "inhibition in vivo at 50 mg/kg", -8.6),
    ("CC(C)c1cc(O)c(C2=CCN(C(C)C)CC2)c(O)c1 [XIII, hydrochloride]", "inhibition in vivo at 50 mg/kg", 36.4),
]

Query CCCCCC(C)C(C)c1cc(O)c(C2CCNCC2)c(O)c1 (centres unmarked) [Example XVI, hydrochloride] yields inhibition in vivo at 50 mg/kg of 40.3

So for CCCCCC(C)C(C)c1cc(O)c(C2CCN(CCc3ccccc3)CC2)c(O)c1 (centres unmarked) [Example XXII, hydrochloride] , the logged inhibition in vivo at 50 mg/kg turned out to be 30.9

// inhibition in vivo at 50 mg/kg lookup, compound = CCCCCc1cc(O)c(C2CCN(CCc3ccccc3)CC2)c(O)c1 [Example XXI, hydrochloride] , result: 56.4

From: patent US4180669A
